# assay: folding stability dG unfold (combined trypsin and chymotrypsin); higher = more stable
The following ranges of folding stability dG unfold define the classes used here: interval 1: < 4 kJ/mol; interval 2: ≥ 4 kJ/mol and < 10 kJ/mol; interval 3: ≥ 10 kJ/mol

                               sequence_code  label_value
 0  SVIKLPIWYPNSPAEQAEEMVQSLARKFMDKYGLKIDVEVETRRDPDGKPRWVRIEATIQYRDEDGKPIFSA [r9_21_TrROS]   interval 2
 1  SAGGSASVSYDPTPGPTRRTTTLLETEEVGPNLKRVKTKVTLFPSDGVPTTSTVTELDLVPPPELPSAGGSA [r15_1035_JUSTAS]   interval 1
 2  SAGGSAGGSAGGKKTYVKKIVTEKKKVKLFFYDKKTGELLEEKEVEVIKTKIYVTKPDEFSAGGSAGGSAGG [r7_573_TrMRF]   interval 1
 3  SMPEKYIVRVEVRGRDGKTVTFEAEATVDSSDFDDFIEAILEAPGLEDADEVRFYVYRLGTGRPEEFTVPSA [r9_97_TrMRF]   interval 3
 4  SAGMISPEEIAKRLKAGEPVEIYLPDPAEKEALLAELQKLLGLSEEELKEIFAKMKFTEIPATDPRLLASAG [r5_368_JUSTAS]   interval 2
 5  SAGGITIELRNPNGEPVEVHLKRDPDGTLELSVHMRGPEGRHYMVTMTIKVKNNGIEIDKFDNWYPLPSAGG [r13_451_TrROS]   interval 3
 6  SAGGMLTGTLVDPVEGIRYTSFYDPSKPSSSITPKPIPPVPPVSLEELAERLRAATGLSREEVLALLESAGG [r13_824_JUSTAS]   interval 1
 7  SAGGSAGGGEPFVIRVELEWPNNNSIPFNIPFPPGDAITAAKNIASPLRKMGRPIKIKITDIYPSAGGSAGG [r6_721_TrROS]   interval 1
 8  SAGGSAGGSAAPLYELEILSVDLDPDNPTVYVLARIPGTSNYVLITFPPNGDVYAYASPLPSAGGSAGGSAG [r3_294_TrMRF]   interval 2
 9  SSSSSRTIEYPDSTLELTFTTTPLPDDTYRVPVQVTRYDPVTKTWSTRNLTVPFPPSDPEAAAEAVIARLLS [r1_171_JUSTAS]   interval 1
10  SAGGSAGGSAGGMIRIENPGNGEPRPIKPNDLEDILDNFPGPMRIETGGGEKEVPAKDISAGGSAGGSAGGS [r10_839_TrROS]   interval 1
11  SAGGSSPELAAERLAEELRRQGYAVREVVVTYDPAGTVTVSAVIEDPADPAATSTLTVTVPLAELGSAGGSA [r2_384_JUSTAS]   interval 3
12  SAGGSAGGSGMISKTEVERLPDGTVIERKEYPEGGLTTLKIYKVPPDGVPTLVEEKLVPEKLISAGGSAGGS [r12_695_JUSTAS]   interval 1
13  SAGGSAAGAERVTYNYMIPNDGKWFMIRITIYRFEVKRDPEDNKYKLDLPPGDQLFINTEIMWFPNSAGGSA [r15_1040_TrROS]   interval 3
14  SAGGSAGGRVRIHYNPEDGYIMITFPRNNPEEIAKEILEAFNIKDVNIQVDPEEGWVSIMIKIDSAGGSAGG [r6_662_TrROS]   interval 2
15  SAGGSAGGSAGGPKIEIPMVHLHPNGTITVMRMKMEYDPNGKFEIKKMEMHTVPADDIKDSAGGSAGGSAGG [r7_521_TrROS]   interval 1
16  SAMKEGEEYEPVEKKKITIKNKKTNKTIEIEVVRNKKTNKYIVKITTKDGKKIEIVVSKEELEKLLKKLSAG [r14_240_TrROS_Hall]   interval 3
17  SAGGSMLVTVKFKTLPDGTVDHNPKLLAKVDGPEPDPADPATVRLPVDPAVVAQWPEEVAEEMEILASAGGS [r16_328_JUSTAS]   interval 1
18  SAGGSAGGMTITLTLPDGTVITITVSRPGSPTTVVSVKAERPARGGTDIPEEVAKELAEKILKESAGGSAGG [r6_235_JUSTAS]   interval 3
19  SAGGMYTLSEKTLPDGSKLLTVTRPDKPEEVFLPKEAENLPPETPVTTRGAGGEEVRPVAEILPPALLSAGG [r13_97_JUSTAS]   interval 1
20  SSMSMKTITIDATFTSEEEAKKYAEEIKKKIPPENIKNISISSTPELVTGDGTYKGEKIKVTITIEIVKKSA [r9_605_JUSTAS]   interval 2
21  SAGIEIDIEVDPENGFIKITAKIHNPDGNPVYEMEMWIPVDNGRIYRVDIRINPDNGKIELDIEPFPLNSAG [r5_34_TrROS]   interval 3
22  SAGNITIEWEEYEDYRVIKITIPYKSPQQAPEEIESIIRKLGFPPNMKIEDIEVDPEEGHVEITIYIKSAGG [r19_186_TrROS]   interval 3
23  SAGGSAKKPEVTVEIEIVLPKEELEELLEALRKLPGLKVEVEEVEVREDGYVRVKLRITLPPGVKPSAGGSA [r15_441_TrROS_Hall]   interval 3
24  SAGGKKIKAKVIEIKKIGDKVLVTIERPDGSPDEVLIDKKEVAEKITPESEVEIEVFPDGSVKIKVGSAGGS [r16_2_TrMRF]   interval 2

====

# assay: folding stability dG unfold from chymotrypsin proteolysis; higher = more stable
The following ranges of folding stability dG unfold define the classes used here: low value = under 1 kcal/mol, medium value = from 1 kcal/mol up to 4 kcal/mol, high value = 4 kcal/mol and over

In [3]: df
Out[3]:
                               sequence_code   label_value
 0  SAKKIPLDDAKIRIKMESPNGMIMEFPIKNVQIDPKNGKLSFEFPMRIYNPDNGKERPMRMKIDEIVPVSAG [r14_825_TrROS]     low value
 1  SAGGSAGGSAGGPPVLTVTRYPPTPYLTVTLPGGRPVVLPVHPDTPPSDVLRLARELTASAGGSAGGSAGGS [r10_33_TrMRF]     low value
 2  SAGGSAGGSAGGSLAFEGSFRFRKLKLTFKRKLTRTRPDGEPEEFEEELELEVEVVLPVSAGGSAGGSAGGS [r4_418_TrMRF]    high value
 3  SAGKIEVKKNYVVIEIKVEGKELKLVIKVKTKEEQEKALELVKKLEEELKKEGLEVEVKVEVFKEGEEVSAG [r5_823_TrROS_Hall]  medium value
 4  SAGGSAGGSAKYILITAPKDNEEKVLEIAEELEKKYGVKLHKVERLPDGTVKALVEIFAPEKSAGGSAGGSA [r18_351_TrMRF]     low value
 5  SAGGGMKISTVETKPESDGSIVITIKVYDANGNEIKTYTIPLKGLSNVTITIPVANNPIEVSIPATLSSAGG [r13_427_JUSTAS]  medium value
 6  SAGGSAGGSDPNNEPVYIMMKFEIEIKVERDPENGKPKAEDPITITFIIRIPPNGNLEIGIMISAGGSAGGS [r12_438_TrROS]    high value
 7  SAGGPFRVRISDEVIKELKKQGLKPGKKSVKITMQYPNGWVFRGTIKIPPANPKIPLKAEPVERLDDSAGGS [r16_497_TrROS]     low value
 8  SAGGSADRVTVTVTVRVRDPATGEWREVTETVTVPAPLTLEITLPPGWRLRLTLEDGELRLEVEPESAGGSA [r2_109_TrROS_Hall]    high value
 9  SAGGSAPNKWKTVDIEFMFPPDNLEEFVDEISKLPGIKASIEPVEYDPEGMYWMKIDITIPPGMKISAGGSA [r15_441_TrROS]  medium value
10  SAGGSAGGSAGKEYIVRITLPNGKVYEFPGKLEDVVKALPPEYKDAVIEVFDPRTGKRVSSAGGSAGGSAGG [r11_353_TrMRF]    high value
11  SAGGSAGGSALDDFKIEEVQYDPDGNTIRFIFKFPGQVWILRIRMPKNGKMEIEWIPADDISAGGSAGGSAG [r3_167_TrROS]    high value

====

# assay: folding stability dG unfold from trypsin proteolysis; higher = more stable
readout: folding stability dG unfold (kcal/mol)

>>> df
                              sequence_code  reported_result
0  SAGGSAMLVFKITIKNPETNETIELEIEAETLEEAKEAIEKLIAELTGKEPTEIKIEVVEIKEEDLSAGGSA [r15_670_TrROS_Hall]             4.09
1  SAGGSAGGSAMTPVTIKVTLTNPATGSTTTKTIYVPEPNPSVEEIKKKLPSDWTVTSITLSSAGGSAGGSAG [r3_80_JUSTAS]             1.23
2  SAETKAEVFRFGDVLVVVTEERVTTPDGSERPVYTVTLLVYDPSTGKWTPFSRPFSSKEDAAKALSSGVSAG [r14_500_TrMRF]             1.52
3  SAGGLPELLKALGLPVTSVRSVPVLLPGGRPALVTFVEFEDPEGERYRLVVVRLPNGEVLVRVERLDPSAGG [r13_818_TrMRF]             3.39

Values from the supplement of paper PMC12764529
